Molecular target: T1, NLpoly 5A2 (G15A/G35A/G51A/G67A/G71A)
T1 chain: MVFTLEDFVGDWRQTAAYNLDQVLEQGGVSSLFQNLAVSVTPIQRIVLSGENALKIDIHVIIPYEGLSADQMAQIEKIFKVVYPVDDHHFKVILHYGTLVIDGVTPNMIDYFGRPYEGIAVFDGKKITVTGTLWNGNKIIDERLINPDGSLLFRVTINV
Test: luminescence complementation, one-site specific binding; replicate 3
MEASURED_PROPERTY: Kd
Put your answer as a value accompanied by its unit after it.

Query: Recorded Kd for Ac-VSGWRLFKKIS-NH2 [NLpep86] , please?
Result: 93.3 nM
